System: HCT-15
protocol-description: Growth inhibition of human HCT15 cells after 48 hrs by sulforhodamine B assay
Assay type: functional
condition-set: HCT-15, 48 h
value-kind: GI50 (nM)
Field format: number, assumed nM, no unit text.

Q. Give its GI50 value. Item: CCOc1ccc(C(=O)N2c3ccccc3Sc3ccccc32)cc1Cl
A. 373

Q. Give its GI50 value. Item: COc1c(F)ccc(C(=O)N2c3ccccc3Sc3ccccc32)c1F
A. 3070

Q. Give its GI50 value. Item: CCOC(=O)c1cc(C(=O)N2c3ccccc3Sc3ccccc32)n2c(C)cccc12
A. 4520

Q. Give its GI50 value. Item: COc1cc2cc(C(=O)N3c4ccccc4Sc4ccccc43)[nH]c2cc1OC
A. 442

Q. Give its GI50 value. Item: COc1ccc(C(=O)N2c3ccccc3Sc3ccccc32)cc1N
A. 73

Q. Give its GI50 value. Item: COc1ccc(C(=O)N2c3ccccc3Sc3ccccc32)cc1F
A. 405

Q. Give its GI50 value. Item: O=C(c1ccc2c(c1)Sc1ccccc1N2)c1c[nH]c2ccccc12
A. 489

Q. Give its GI50 value. Item: CN(C)Cc1cn(C(=O)N2c3ccccc3Sc3ccccc32)c2ccccc12
A. 1700

* * *

The entries below come with measured inhibition values attached.
Species: Ovis aries
protocol-description: Inhibition of sheep brain tubulin polymerization at 100 uM using DAPI by fluorimetry
Field format: number, assumed %, no unit text.

Q. Give its inhibition value. Item: O=C(c1cc2cc(F)ccc2[nH]1)N1c2ccccc2Sc2ccccc21
A. 32

Q. Give its inhibition value. Item: CCOC(=O)c1cc(C(=O)N2c3ccccc3Sc3ccccc32)n2ccc(N(C)C)cc12
A. 42

Next:
Q. Give its inhibition value. Item: O=C(c1cnc2ccccn12)N1c2ccccc2Sc2ccccc21
A. 38

* * *

The entries below come with measured log10 of GI50 values attached.
Tested on: 786-0
protocol-description: Growth inhibition of human 786-0 cells after 48 hrs by sulforhodamine B assay
Format: functional
condition-set: 786-0, 48 h
Reminder: these figures are log10 of reported GI50, in nM before transformation.

Below are worked cases with known answers.
Q. Give its log10 of GI50 value. Item: CCOC(=O)c1cc(C(=O)N2c3ccccc3Sc3ccccc32)n2c(C)cccc12
A. 3.62

Q. Give its log10 of GI50 value. Item: O=C(c1ccc2c(c1)Sc1ccccc1N2)c1c[nH]c2ccccc12
A. 3.28

Q. Give its log10 of GI50 value. Item: COc1ccc(C(=O)N2c3ccccc3Sc3ccccc32)cc1F
A. 2.77

Q. Give its log10 of GI50 value. Item: COc1ccc(C(=O)N2c3ccccc3Sc3ccccc32)cc1N
A. 2.72

Q. Give its log10 of GI50 value. Item: CCOc1ccc(C(=O)N2c3ccccc3Sc3ccccc32)cc1Cl
A. 2.68

Next:
Q. Give its log10 of GI50 value. Item: COc1c(F)ccc(C(=O)N2c3ccccc3Sc3ccccc32)c1F
A. 3.88

Q. Give its log10 of GI50 value. Item: CN(C)Cc1cn(C(=O)N2c3ccccc3Sc3ccccc32)c2ccccc12
A. 3.24

Q. Give its log10 of GI50 value. Item: COc1cc2cc(C(=O)N3c4ccccc4Sc4ccccc43)[nH]c2cc1OC
A. 2.97

* * *

The entries below come with measured GI50 values attached.
System: SK-MEL-28
protocol-description: Growth inhibition of human SK-MEL-28 cells after 48 hrs by sulforhodamine B assay
Assay type: functional
condition-set: SK-MEL-28, 48 h
Write the quantity with the unit trailing the number.

Below are worked cases with known answers.
Q. Give its GI50 value. Item: COc1ccc(C(=O)N2c3ccccc3Sc3ccccc32)cc1N
A. 407 nM

Q. Give its GI50 value. Item: COc1c(F)ccc(C(=O)N2c3ccccc3Sc3ccccc32)c1F
A. 4930 nM

Q. Give its GI50 value. Item: CN(C)Cc1cn(C(=O)N2c3ccccc3Sc3ccccc32)c2ccccc12
A. 1720 nM

Q. Give its GI50 value. Item: CCOC(=O)c1cc(C(=O)N2c3ccccc3Sc3ccccc32)n2c(C)cccc12
A. 3500 nM

Q. Give its GI50 value. Item: CCOc1ccc(C(=O)N2c3ccccc3Sc3ccccc32)cc1Cl
A. 817 nM

Next:
Q. Give its GI50 value. Item: COc1ccc(C(=O)N2c3ccccc3Sc3ccccc32)cc1F
A. 543 nM

Q. Give its GI50 value. Item: COc1cc2cc(C(=O)N3c4ccccc4Sc4ccccc43)[nH]c2cc1OC
A. 829 nM

Q. Give its GI50 value. Item: O=C(c1ccc2c(c1)Sc1ccccc1N2)c1c[nH]c2ccccc12
A. 647 nM

* * *

System: LOX IMVI
protocol-description: Growth inhibition of human LOXIMVI cells at 10 uM after 48 hrs by sulforhodamine B assay
Format: functional
condition-set: read-out: GI
value-kind: inhibition of growth at 10 µM (%)
Field format: number, assumed %, no unit text.

Below are worked cases with known answers.
Q. Which inhibition of growth at 10 µM is reported with LOX IMVI for this entry: O=C(c1cc2cc(F)ccc2[nH]1)N1c2ccccc2Sc2ccccc21 ?
A. 33.6

Q. Which inhibition of growth at 10 µM is reported with LOX IMVI for this entry: CCOC(=O)c1cc(C(=O)N2c3ccccc3Sc3ccccc32)n2ccc(N(C)C)cc12 ?
A. 20.2

Q. Which inhibition of growth at 10 µM is reported with LOX IMVI for this entry: O=C(c1cnc2ccccn12)N1c2ccccc2Sc2ccccc21 ?
A. 12

Next:
Q. Which inhibition of growth at 10 µM is reported with LOX IMVI for this entry: CC(=O)c1cn(C(=O)N2c3ccccc3Sc3ccccc32)c2ccccc12 ?
A. 9

* * *

Test system: OVCAR-8
protocol-description: Growth inhibition of human OVCAR8 cells after 48 hrs by sulforhodamine B assay
Assay type: functional
condition-set: OVCAR-8, 48 h
For each record, check the reported GI50: if it is below 2000 nM write label 1, else write label 0.

Q. Problem: For the compound CCOc1ccc(C(=O)N2c3ccccc3Sc3ccccc32)cc1Cl , is GI50 under 2000 nM?
A. label 1

Q. Problem: For the compound COc1ccc(C(=O)N2c3ccccc3Sc3ccccc32)cc1F , is GI50 under 2000 nM?
A. label 1

Next:
Q. Problem: For the compound CN(C)Cc1cn(C(=O)N2c3ccccc3Sc3ccccc32)c2ccccc12 , is GI50 under 2000 nM?
A. label 1

Q. Problem: For the compound CCOC(=O)c1cc(C(=O)N2c3ccccc3Sc3ccccc32)n2c(C)cccc12 , is GI50 under 2000 nM?
A. label 0

Q. Problem: For the compound COc1cc2cc(C(=O)N3c4ccccc4Sc4ccccc43)[nH]c2cc1OC , is GI50 under 2000 nM?
A. label 1

Q. Problem: For the compound COc1c(F)ccc(C(=O)N2c3ccccc3Sc3ccccc32)c1F , is GI50 under 2000 nM?
A. label 0

Q. Problem: For the compound COc1ccc(C(=O)N2c3ccccc3Sc3ccccc32)cc1N , is GI50 under 2000 nM?
A. label 1

Q. Problem: For the compound O=C(c1ccc2c(c1)Sc1ccccc1N2)c1c[nH]c2ccccc12 , is GI50 under 2000 nM?
A. label 1

* * *

Tested on: BT-549
protocol-description: Growth inhibition of human BT549 cells after 48 hrs by sulforhodamine B assay
Format: functional
condition-set: BT-549, 48 h
The entries below come with measured GI50 values attached.
Field format: number, assumed nM, no unit text.

Below are worked cases with known answers.
Q. Give its GI50 value. Item: COc1ccc(C(=O)N2c3ccccc3Sc3ccccc32)cc1F
A. 604

Q. Give its GI50 value. Item: COc1cc2cc(C(=O)N3c4ccccc4Sc4ccccc43)[nH]c2cc1OC
A. 6060

Q. Give its GI50 value. Item: O=C(c1ccc2c(c1)Sc1ccccc1N2)c1c[nH]c2ccccc12
A. 398

Q. Give its GI50 value. Item: CN(C)Cc1cn(C(=O)N2c3ccccc3Sc3ccccc32)c2ccccc12
A. 2960

Q. Give its GI50 value. Item: COc1ccc(C(=O)N2c3ccccc3Sc3ccccc32)cc1N
A. 877

Next:
Q. Give its GI50 value. Item: CCOc1ccc(C(=O)N2c3ccccc3Sc3ccccc32)cc1Cl
A. 613

Q. Give its GI50 value. Item: CCOC(=O)c1cc(C(=O)N2c3ccccc3Sc3ccccc32)n2c(C)cccc12
A. 2930

Q. Give its GI50 value. Item: COc1c(F)ccc(C(=O)N2c3ccccc3Sc3ccccc32)c1F
A. 5210

* * *

The entries below come with measured GI50 values attached.
protocol-description: Growth inhibition of human Hs 578T cells after 48 hrs by sulforhodamine B assay
Type: functional
Write the quantity with the unit trailing the number.

Q. Give its GI50 value. Item: CCOc1ccc(C(=O)N2c3ccccc3Sc3ccccc32)cc1Cl
A. 573 nM

Q. Give its GI50 value. Item: COc1ccc(C(=O)N2c3ccccc3Sc3ccccc32)cc1N
A. 424 nM

Q. Give its GI50 value. Item: COc1ccc(C(=O)N2c3ccccc3Sc3ccccc32)cc1F
A. 285 nM

Q. Give its GI50 value. Item: O=C(c1ccc2c(c1)Sc1ccccc1N2)c1c[nH]c2ccccc12
A. 702 nM

Next:
Q. Give its GI50 value. Item: COc1c(F)ccc(C(=O)N2c3ccccc3Sc3ccccc32)c1F
A. 6920 nM

Q. Give its GI50 value. Item: COc1cc2cc(C(=O)N3c4ccccc4Sc4ccccc43)[nH]c2cc1OC
A. 1960 nM

Q. Give its GI50 value. Item: CN(C)Cc1cn(C(=O)N2c3ccccc3Sc3ccccc32)c2ccccc12
A. 2080 nM

Q. Give its GI50 value. Item: CCOC(=O)c1cc(C(=O)N2c3ccccc3Sc3ccccc32)n2c(C)cccc12
A. 1500 nM
